# Target entity: T1, recombinant C-terminally truncated RSV (A2 strain) F protein (RSV (A2 strain), UniProt P03420 26-524)
# T1 construct: extracellular domain; also called truncated F protein; extracellular domain of the F protein from RSV A2
# T1 sequence (P03420 26-109, chain 1 of 2): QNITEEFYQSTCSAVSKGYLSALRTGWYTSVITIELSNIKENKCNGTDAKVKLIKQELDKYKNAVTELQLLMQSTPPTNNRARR
# T1 sequence (P03420 137-524, chain 2 of 2): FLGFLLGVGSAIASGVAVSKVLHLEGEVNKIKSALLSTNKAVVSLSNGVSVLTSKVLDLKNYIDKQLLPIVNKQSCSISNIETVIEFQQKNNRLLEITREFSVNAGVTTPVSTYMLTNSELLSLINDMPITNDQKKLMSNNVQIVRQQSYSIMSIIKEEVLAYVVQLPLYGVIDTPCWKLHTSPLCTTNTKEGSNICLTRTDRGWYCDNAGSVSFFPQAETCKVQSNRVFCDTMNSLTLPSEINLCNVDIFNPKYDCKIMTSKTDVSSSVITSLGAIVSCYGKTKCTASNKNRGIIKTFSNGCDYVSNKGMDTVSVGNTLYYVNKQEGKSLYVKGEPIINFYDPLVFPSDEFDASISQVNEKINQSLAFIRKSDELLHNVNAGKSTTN
# Assay method text: SPR (BIAcore), IgG over immobilised F
Please provide measured log10 of koff for the entries that follow.
Hi team, quick reminder: these entries are log10 of koff (s⁻¹).

Can you look up the measured log10 of koff of A4B4 IgG (antibody, V domains shown) VH: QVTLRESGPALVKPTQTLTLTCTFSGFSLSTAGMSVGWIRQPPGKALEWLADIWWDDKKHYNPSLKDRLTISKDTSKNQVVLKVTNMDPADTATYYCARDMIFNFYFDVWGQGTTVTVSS VL: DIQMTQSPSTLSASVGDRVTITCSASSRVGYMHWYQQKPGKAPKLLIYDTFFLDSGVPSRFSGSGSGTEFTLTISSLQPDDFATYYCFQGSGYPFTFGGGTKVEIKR for me?
-4.82

Can you look up the measured log10 of koff of A17d4(1) IgG (antibody, V domains shown) VH: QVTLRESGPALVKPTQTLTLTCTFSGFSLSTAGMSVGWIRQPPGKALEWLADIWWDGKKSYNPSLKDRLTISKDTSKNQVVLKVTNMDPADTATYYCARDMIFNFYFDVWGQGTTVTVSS VL: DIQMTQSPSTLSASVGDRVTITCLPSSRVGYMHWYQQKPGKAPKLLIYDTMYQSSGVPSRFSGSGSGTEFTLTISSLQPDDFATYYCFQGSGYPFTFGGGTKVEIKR for me?
-4.39

Can you look up the measured log10 of koff of P12f4 IgG (antibody, V domains shown) VH: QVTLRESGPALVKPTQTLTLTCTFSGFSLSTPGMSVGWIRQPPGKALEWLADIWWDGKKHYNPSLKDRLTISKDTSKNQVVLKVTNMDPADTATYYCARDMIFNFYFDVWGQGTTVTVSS VL: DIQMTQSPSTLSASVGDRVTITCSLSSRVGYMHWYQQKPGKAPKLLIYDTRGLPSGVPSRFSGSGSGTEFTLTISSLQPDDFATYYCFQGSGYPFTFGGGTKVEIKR for me?
-4.26

Can you look up the measured log10 of koff of A13c4 IgG (antibody, V domains shown) VH: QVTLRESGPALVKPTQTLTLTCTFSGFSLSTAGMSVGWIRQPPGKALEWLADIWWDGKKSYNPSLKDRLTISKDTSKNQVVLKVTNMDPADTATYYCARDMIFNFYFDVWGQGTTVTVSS VL: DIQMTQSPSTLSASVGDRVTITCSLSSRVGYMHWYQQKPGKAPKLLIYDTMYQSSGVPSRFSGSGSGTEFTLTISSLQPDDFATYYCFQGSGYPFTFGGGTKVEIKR for me?
-4.40

Can you look up the measured log10 of koff of P11d4 IgG (antibody, V domains shown) VH: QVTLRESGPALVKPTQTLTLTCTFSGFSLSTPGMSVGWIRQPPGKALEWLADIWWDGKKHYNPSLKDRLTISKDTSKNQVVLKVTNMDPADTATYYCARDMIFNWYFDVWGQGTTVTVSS VL: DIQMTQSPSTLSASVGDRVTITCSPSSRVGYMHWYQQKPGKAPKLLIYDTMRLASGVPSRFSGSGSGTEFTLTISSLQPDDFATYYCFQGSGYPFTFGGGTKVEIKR for me?
-3.54
